Test: Plasma pharmacokinetics of remogliflozin etabonate and its metabolites during metformin treatment
Format: in vivo, human
Conditions: human, plasma, oral, 500 mg, Day 1, after RE 500 mg BID + metformin, N = 16; read-out: AUC(0-tau), geometric mean (%CVb)
Outcome Measure: AUC (ng·h/mL)
Enter your answer as a number in ng·h/mL; do not include the unit.

Input: Entry under review: "Cc1c(Cc2ccc(OC(C)C)cc2)c(O[C@@H]2O[C@H](CO)[C@@H](O)[C@H](O)[C@H]2O)nn1C(C)C" . Reported AUC?
Output: 4890

###

Quick reference for Tmax among some molecules
Assay: Plasma pharmacokinetics of remogliflozin etabonate and its metabolites during metformin treatment
Type: in vivo, human
Conditions: human, plasma, oral, 500 mg, Day 1, after RE 500 mg BID + metformin, N = 16; read-out: tmax, median (range)
Provide only the numeric value, understood in min.

Input: What measured Tmax goes with Cc1c(Cc2ccc(OC(C)C)cc2)c(O[C@@H]2O[C@H](CO)[C@@H](O)[C@H](O)[C@H]2O)nn1C(C)C [Remogliflozin, remogliflozin] ?
Output: 46.2

Input: Return reported Tmax; argument: CCOC(=O)OC[C@H]1O[C@@H](Oc2nn(C(C)C)c(C)c2Cc2ccc(OC(C)C)cc2)[C@H](O)[C@@H](O)[C@@H]1O [RE, remogliflozin etabonate]
Output: 37.8

###

Assay: Plasma pharmacokinetics of metformin with and without RE
Format: in vivo, human
Conditions: human, plasma, oral, Metformin AUC (0-tau), geometric mean, Day 13; Metformin + Placebo group
Outcome Measure: AUC (ng·h/mL)
# output: bare number, implied unit ng·h/mL

Input: Using the record for CN(C)C(=N)N=C(N)N [Metformin, metformin, reference compound] , report its AUC.
Output: 14000
